Recorded pIC50 for the following compounds
System: A549
Experiment: Antiproliferative activity against human A549 cells assessed as inhibition of cell growth incubated for 48 hrs by MTT assay
Assay type: functional, cell-based
Conditions: A549, 48 h
pIC50: −log10 of the molar value.
recorded-endpoint: pIC50

>  <compound-structure-string>
COc1cc(C(=O)n2nc(N)cc2-c2ccc(F)cc2)cc(OC)c1OC

>  <recorded-endpoint>
pIC50

>  <op>
=

>  <reported-value>
5.60

$$$$
>  <compound-structure-string>
COc1ccc(C(=O)n2nc(N)cc2-c2ccc(Br)cc2)cc1OC

>  <recorded-endpoint>
pIC50

>  <op>
=

>  <reported-value>
5.57

$$$$
>  <compound-structure-string>
COc1ccc(C(=O)n2nc(N)cc2-c2ccc(C)cc2)cc1OC

>  <recorded-endpoint>
pIC50

>  <op>
=

>  <reported-value>
5.60

$$$$
>  <compound-structure-string>
COc1cc(C(=O)n2nc(N)cc2-c2cccc(C)c2)cc(OC)c1OC

>  <recorded-endpoint>
pIC50

>  <op>
=

>  <reported-value>
6.11

$$$$
>  <compound-structure-string>
COc1ccc(-c2cc(N)nn2C(=O)c2cc(OC)c(OC)c(OC)c2)cc1

>  <recorded-endpoint>
pIC50

>  <op>
=

>  <reported-value>
6.46

$$$$
>  <compound-structure-string>
COc1ccc(/C=C\c2cc(OC)c(OC)c(OC)c2)cc1O

>  <recorded-endpoint>
pIC50

>  <op>
=

>  <reported-value>
6.55

$$$$
>  <compound-structure-string>
COc1cc(C(=O)n2nc(N)cc2-c2ccc(Br)cc2)cc(OC)c1OC

>  <recorded-endpoint>
pIC50

>  <op>
=

>  <reported-value>
5.61

$$$$
>  <compound-structure-string>
COc1ccc(C(=O)n2nc(N)cc2-c2ccc(Cl)cc2)cc1OC

>  <recorded-endpoint>
pIC50

>  <op>
=

>  <reported-value>
5.75

$$$$
>  <compound-structure-string>
COc1ccc(C(=O)n2nc(N)cc2-c2ccc(F)cc2)cc1OC

>  <recorded-endpoint>
pIC50

>  <op>
<

>  <reported-value>
5.30

$$$$
>  <compound-structure-string>
Nc1cc(-c2ccc(Cl)cc2)n(C(=O)c2ccc3c(c2)OCO3)n1

>  <recorded-endpoint>
pIC50

>  <op>
=

>  <reported-value>
5.77

$$$$

Values compiled from ChEMBL document CHEMBL5512613.
